- assay-summary: Stability of cannabinoid entourage and Vitamin E components of the powder concentrate by LCMSMS
- Type: physicochemical
- measurement-context: powder stored at 21-25° C.; 16 days
Short version: Stability of Plant-Derived Cannabinoid Compounds in Powder Concentrate at least 0.4 mg/g powder is satisfied, less is not satisfied.

## Input Hi team, for CCCCCc1cc(O)c2c(c1)OC(C)(CCC=C(C)C)C=C2 (stereo not shown) , is the recorded Stability of Plant-Derived Cannabinoid Compounds in Powder Concentrate at or above 0.4 mg/g powder?
## Output not satisfied

## Input Hi team, for CCCCCc1cc2c(c(O)c1C(=O)O)[C@@H]1C=C(C)CC[C@H]1C(C)(C)O2 [D9 THCA, delta-9-tetrahydrocannabinolic acid] , is the recorded Stability of Plant-Derived Cannabinoid Compounds in Powder Concentrate at or above 0.4 mg/g powder?
## Output not satisfied

## Input Hi team, for C=C(C)[C@@H]1CCC(C)=C[C@H]1c1c(O)cc(CCCCC)cc1O [CBD, cannabidiol, reference compound] , is the recorded Stability of Plant-Derived Cannabinoid Compounds in Powder Concentrate at or above 0.4 mg/g powder?
## Output satisfied

## Input Hi team, for CCCCCc1cc(O)c2c(c1)OC(C)(C)[C@@H]1CCC(C)=C[C@@H]21 [D9 THC, delta-9-tetrahydrocannabinol, reference compound] , is the recorded Stability of Plant-Derived Cannabinoid Compounds in Powder Concentrate at or above 0.4 mg/g powder?
## Output satisfied

## Input Hi team, for `C=C(C)[C@@H]1CCC(C)=C[C@H]1c1c(O)cc(CCCCC)c(C(=O)O)c1O` , is the recorded Stability of Plant-Derived Cannabinoid Compounds in Powder Concentrate at or above 0.4 mg/g powder?
## Output satisfied

## Input Hi team, for `CCCCCc1cc(O)c(C/C=C(\C)CCC=C(C)C)c(O)c1` , is the recorded Stability of Plant-Derived Cannabinoid Compounds in Powder Concentrate at or above 0.4 mg/g powder?
## Output satisfied

## Input Hi team, for `C=C(C)[C@@H]1CCC(C)=C[C@H]1c1c(O)cc(CCC)cc1O` , is the recorded Stability of Plant-Derived Cannabinoid Compounds in Powder Concentrate at or above 0.4 mg/g powder?
## Output not satisfied

## Input Hi team, for CCCc1cc(O)c2c(c1)OC(C)(C)[C@@H]1CCC(C)=C[C@@H]21 [THCV, delta-9-tetrahydrocannabivarin] , is the recorded Stability of Plant-Derived Cannabinoid Compounds in Powder Concentrate at or above 0.4 mg/g powder?
## Output satisfied

## Input Hi team, for `CCCCCc1cc(O)c2c(c1)OC(C)(C)c1ccc(C)cc1-2` , is the recorded Stability of Plant-Derived Cannabinoid Compounds in Powder Concentrate at or above 0.4 mg/g powder?
## Output satisfied

## Input Hi team, for CCCCCc1cc(O)c2c(c1)OC1(C)CCC3C1C2C3(C)C (stereo not shown) , is the recorded Stability of Plant-Derived Cannabinoid Compounds in Powder Concentrate at or above 0.4 mg/g powder?
## Output not satisfied

----------
For each of the compounds below, state its Stability of Plant-Derived Cannabinoid Compounds in Powder Concentrate.
- assay-summary: Stability of cannabinoid entourage and Vitamin E components of the powder concentrate by LCMSMS
- Format: physicochemical
- measurement-context: powder stored at 21-25° C.; 24 days
- Procedure: At each time period, 0.05 g of powder was dissolved in 10 ml-15 of ethanol, diluted to fall within the analytical range, and injected into the LCMSMS for analysis.
Express your answer in mg/g powder, writing the number without its unit.

## Input # input compound: C=C(C)[C@@H]1CCC(C)=C[C@H]1c1c(O)cc(CCCCC)cc1O [CBD, cannabidiol, reference compound] ; wanted: its Stability of Plant-Derived Cannabinoid Compounds in Powder Concentrate
## Output 5.89

## Input # input compound: `C=C(C)[C@@H]1CCC(C)=C[C@H]1c1c(O)cc(CCCCC)c(C(=O)O)c1O` ; wanted: its Stability of Plant-Derived Cannabinoid Compounds in Powder Concentrate
## Output 0.403

## Input # input compound: CCCc1cc(O)c2c(c1)OC(C)(C)[C@@H]1CCC(C)=C[C@@H]21 [THCV, delta-9-tetrahydrocannabivarin] ; wanted: its Stability of Plant-Derived Cannabinoid Compounds in Powder Concentrate
## Output 0.668

## Input # input compound: CCCCCc1cc(O)c2c(c1)OC1(C)CCC3C1C2C3(C)C (stereo not shown) ; wanted: its Stability of Plant-Derived Cannabinoid Compounds in Powder Concentrate
## Output 0.050

## Input # input compound: CCCCCc1cc2c(c(O)c1C(=O)O)[C@@H]1C=C(C)CC[C@H]1C(C)(C)O2 [D9 THCA, delta-9-tetrahydrocannabinolic acid] ; wanted: its Stability of Plant-Derived Cannabinoid Compounds in Powder Concentrate
## Output 0.150

## Input # input compound: CCCCCc1cc(O)c2c(c1)OC(C)(CCC=C(C)C)C=C2 (stereo not shown) ; wanted: its Stability of Plant-Derived Cannabinoid Compounds in Powder Concentrate
## Output 0.068

## Input # input compound: `CCCCCc1cc(O)c(C/C=C(\C)CCC=C(C)C)c(O)c1` ; wanted: its Stability of Plant-Derived Cannabinoid Compounds in Powder Concentrate
## Output 1.09

----------
For each of the compounds below, state its Stability of Plant-Derived Cannabinoid Compounds in AB Red.
- assay-summary: Stability of cannabinoid compounds and Vitamin E components in Beverage 2 (AB Red) by LCMSMS
- Format: physicochemical
- measurement-context: stored at 8° C., 25 days
Express your answer in µg/mL, writing the number without its unit.

## Input # input compound: C=C(C)[C@@H]1CCC(C)=C[C@H]1c1c(O)cc(CCC)cc1O [CBDV, cannabidivarin] ; wanted: its Stability of Plant-Derived Cannabinoid Compounds in AB Red
## Output 0.199

## Input # input compound: CCCCCc1cc(O)c2c(c1)OC1(C)CCC3C1C2C3(C)C (centres unmarked) [CBL, cannabicyclol] ; wanted: its Stability of Plant-Derived Cannabinoid Compounds in AB Red
## Output 0.510

## Input # input compound: CCCCCc1cc(O)c2c(c1)OC(C)(C)[C@@H]1CCC(C)=C[C@@H]21 [D9 THC, delta-9-tetrahydrocannabinol, reference compound] ; wanted: its Stability of Plant-Derived Cannabinoid Compounds in AB Red
## Output 12.9

## Input # input compound: CCCc1cc(O)c2c(c1)OC(C)(C)[C@@H]1CCC(C)=C[C@@H]21 [THCV, delta-9-tetrahydrocannabivarin] ; wanted: its Stability of Plant-Derived Cannabinoid Compounds in AB Red
## Output 3.25

## Input # input compound: CCCCCc1cc(O)c2c(c1)OC(C)(C)c1ccc(C)cc1-2 [CBN, cannabinol] ; wanted: its Stability of Plant-Derived Cannabinoid Compounds in AB Red
## Output 2.83

----------
For each of the molecules below, state its Stability of Plant-Derived Cannabinoid Compounds in AB Red.
- assay-summary: Stability of cannabinoid compounds and Vitamin E components in Beverage 2 (AB Red) by LCMSMS
- Type: physicochemical
- measurement-context: stored at 8° C., 17 days
Express your answer in µg/mL, writing the number without its unit.

## Input # input molecule: C=C(C)[C@@H]1CCC(C)=C[C@H]1c1c(O)cc(CCC)cc1O [CBDV, cannabidivarin] ; wanted: its Stability of Plant-Derived Cannabinoid Compounds in AB Red
## Output 0.195

## Input # input molecule: CCCCCc1cc2c(c(O)c1C(=O)O)[C@@H]1C=C(C)CC[C@H]1C(C)(C)O2 [D9 THCA, delta-9-tetrahydrocannabinolic acid] ; wanted: its Stability of Plant-Derived Cannabinoid Compounds in AB Red
## Output 1.34

## Input # input molecule: CCCCCc1cc(O)c(C/C=C(\C)CCC=C(C)C)c(O)c1 [CBG, cannabigerol] ; wanted: its Stability of Plant-Derived Cannabinoid Compounds in AB Red
## Output 4.77

## Input # input molecule: CCCCCc1cc(O)c2c(c1)OC(C)(C)c1ccc(C)cc1-2 [CBN, cannabinol] ; wanted: its Stability of Plant-Derived Cannabinoid Compounds in AB Red
## Output 2.80

## Input # input molecule: CCCCCc1cc(O)c2c(c1)OC1(C)CCC3C1C2C3(C)C (stereo not drawn) [CBL, cannabicyclol] ; wanted: its Stability of Plant-Derived Cannabinoid Compounds in AB Red
## Output 0.514

## Input # input molecule: CCCCCc1cc(O)c2c(c1)OC(C)(CCC=C(C)C)C=C2 (stereo not drawn) [CBC, cannabichromene] ; wanted: its Stability of Plant-Derived Cannabinoid Compounds in AB Red
## Output 0.282

## Input # input molecule: CCCc1cc(O)c2c(c1)OC(C)(C)[C@@H]1CCC(C)=C[C@@H]21 [THCV, delta-9-tetrahydrocannabivarin] ; wanted: its Stability of Plant-Derived Cannabinoid Compounds in AB Red
## Output 3.12

## Input # input molecule: CCCCCc1cc(O)c2c(c1)OC(C)(C)[C@@H]1CCC(C)=C[C@@H]21 [D9 THC, delta-9-tetrahydrocannabinol, reference compound] ; wanted: its Stability of Plant-Derived Cannabinoid Compounds in AB Red
## Output 12.6

## Input # input molecule: C=C(C)[C@@H]1CCC(C)=C[C@H]1c1c(O)cc(CCCCC)c(C(=O)O)c1O [CBDA, cannabidiolic acid] ; wanted: its Stability of Plant-Derived Cannabinoid Compounds in AB Red
## Output 1.64
